- Test system: GRK3;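 further: KINOMEscan kinase panel screen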
- Construct: gene ADRBK2
- recordedConditions: concentration: 1 μM, replicates: in singlicate; n = 1
parameter: %Inh (%)
One number for each entry, in %.

- molecule: "Clc1cccc(-c2nc(Nc3ccncc3)c3ccccc3n2)c1"
  %Inh / %: 0

List %Inh for every entry below, keeping the order given.
1. Cl.Fc1ccccc1COc1ccc(Nc2ncnc3ccc(-c4nnc(C(F)(F)F)o4)cc23)cc1Cl
2. CC(C)(C)OC(=O)NC1CCCN(c2cc(-c3ccc4c(N)n[nH]c4c3)nc(N)n2)C1 (stereo not shown)
3. Cc1ccc(C)c(NC(=O)NCCNc2ccnc(Nc3ccc(F)cc3)n2)c1

0
0
17

Values from paper PMC5540273
